assay: NCI Yeast Anticancer Drug Screen. Data for the mlh1 rad18 strain (AID 175); details: S. cerevisiae mlh1 rad18 strain growth inhibition, hits give high values; at 50.0 µM unless noted
The panel holds about 79,000 compounds, 15% with a hit somewhere; the sample as a whole holds those more often.
assay.metric: growth inhibition (%)

>>> assay_result("O=CNc1nc[nH]c1-c1noc(=O)[nH]1")
-6.8
>>> assay_result("COCN1C(=N)C(C(=O)OC(C)(C)C)=C2C=C(O)C=CC21C (configuration not stated)")
2.55
>>> assay_result("Cc1cc(=O)[nH]c(NNC(C#N)c2cccc([N+](=O)[O-])c2)n1 (configuration not stated)")
-39.5
>>> assay_result("COC(=O)C1(C)CCCC2(C)c3cc(OC)ccc3C(=O)CC12 (configuration not stated)")
21.7
>>> assay_result("CC1(CCC(=O)O)C(=O)C(=O)CC2C1CCC1(C)C(O)CCC21 (configuration not stated)")
-17.4
>>> assay_result("CC1Sc2ccccc2-c2[nH]c3ccccc3c21 (configuration not stated)")
66.1
>>> assay_result("C=C1[C@@H](O)C[C@@H]2C[C@@]3(C)[C@H](C(C)(C)C[C@@H]3O)C12O (some centres not stated)")
-20.2
>>> assay_result("CCCC(=O)NC1CCCCC1")
-23.1
>>> assay_result("Cc1ccc(NC(=O)c2cccc(OP(=O)(O)Nc3ccc(C)cc3)c2)cc1")
-17
>>> assay_result("Cc1cc(C)c2c(=O)n(-c3ccccc3C)c(=S)n(-c3ccccc3C)c2n1")
24.7
>>> assay_result("O=C(NCc1ccco1)Nc1ccccc1C(F)(F)F")
17.1
>>> assay_result("CC(C)CC(NC=O)C(=O)O (configuration not stated)")
8.35
>>> assay_result("CCN(CC)C(=O)Oc1cccc(NC(=O)OC)c1")
33.4
>>> assay_result("FC(F)(F)c1ccc2ccc3ccc(Cl)cc3c2c1")
-6.55
>>> assay_result("CC1([N+](=O)[O-])COC(Cc2ccccc2)OC1 (configuration not stated)")
-5
>>> assay_result("COC1/C=C/OC2(C)Oc3c(C)c(O)c4c(c3C2=O)C(N)=C(NC2CC2)C(=NC(=O)/C(C)=C\\C=C\\C(C)C(O)C(C)C(O)C(C)C(OC(C)=O)C1C)C4=O (configuration not stated)")
33.1
>>> assay_result("C=C1CC2(OC1=O)c1ccccc1C=Cc1ccccc12")
50.4
>>> assay_result("O=C1/C(=N\\[O-])C(S(=O)(=O)[O-])=Cc2cc(S(=O)(=O)[O-])cc(O)c21.O=C1/C(=N\\[O-])C(S(=O)(=O)[O-])=Cc2cc(S(=O)(=O)[O-])cc(O)c21.[Cu+2]")
-19.5
>>> assay_result("Cc1no[n+]([O-])c1/C=N/NS(=O)(=O)c1ccccc1")
-23.1
>>> assay_result("CC1=CC(=O)CC(C)(C)C1")
3.45
>>> assay_result("O=c1[nH]c2[nH]c(=S)[nH]c(=O)c2[nH]1")
-13.8
>>> assay_result("O=C(CC1(O)C(=O)Nc2ccc(Br)cc21)c1ccc2c(c1)OCO2 (configuration not stated)")
-1.15
>>> assay_result("CCCCCOC1OC(=O)C(Cl)=C1Cl (configuration not stated)")
44
>>> assay_result("O=c1[nH]nc(Cc2ccccc2)n1CCO")
-43.4
>>> assay_result("CC(=O)OC1COC(N2C(=O)C(=O)c3c(C)cc(Cl)nc32)C(OC(C)=O)C1OC(C)=O (configuration not stated)")
-8.3
>>> assay_result("CC(=O)c1c(Cl)nnc(-c2ccccc2)c1-c1ccccc1")
-12.3
>>> assay_result("COC1CCC(OS(C)(=O)=O)C(C)O1 (configuration not stated)")
9.85
>>> assay_result("c1ccc(-n2ncnn2)cc1")
-1.75
>>> assay_result("CC1CCCN(CCC(=O)c2ccc(O)cc2)C1 (configuration not stated)")
32.4
>>> assay_result("C=C(C)C(C)OC(=O)Nc1ccccc1 (configuration not stated)")
-37.5
>>> assay_result("CC(C)(C1CCC([Si](C2CCCCC2)(C2CCCCC2)C2CCCCC2)CC1)[Si](C1CCCCC1)(C1CCCCC1)C1CCCCC1 (configuration not stated)")
-1.95
>>> assay_result("CC(O)CNC(=O)C(C)(C)O (configuration not stated)")
18.9
>>> assay_result("CC1=Nc2ccc([N+](=O)[O-])cc2C1(C)C")
-5.45
>>> assay_result("OC(c1ccccc1)c1ccc(C(O)c2ccccc2)cc1 (configuration not stated)")
-8.75
>>> assay_result("O=C(CCS(=O)(=O)CCC(=O)c1ccc2ccccc2c1)c1ccc2ccccc2c1")
-52.5
>>> assay_result("CNCCCn1c2ccccc2c2c3c(c(-c4ccsc4)cc21)C(=O)NC3=O")
-40.5
>>> assay_result("COC(=O)CCc1ccco1")
12.7

* * *

test: NCI Yeast Anticancer Drug Screen. Data for the rad50 strain (AID 155);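 further: 0% = growth of vehicle-only cultures of the same strain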; conditions: S. cerevisiae rad50 strain growth inhibition, hits give high values; at 50.0 µM unless noted
The panel holds about 79,000 compounds, 15% with a hit somewhere; the sample as a whole holds those more often.
growth inhibition values for the molecules below.
assay.metric: growth inhibition (%)

>>> assay_result("Nc1nc(NCCO)c(NC=O)c(=O)[nH]1")
-11.6
>>> assay_result("O=S(=O)(O)C(I)S(=O)(=O)O")
-19.1
>>> assay_result("CSc1nnc(CCC(=O)Nc2cc(Cl)ccc2Cl)o1")
40.7
>>> assay_result("Cc1nc(N)c(N)c(=O)[nH]1")
-0.6
>>> assay_result("CCN(CC)c1ccc(N=Nc2ccc(-c3nc4cccnc4o3)cc2)cc1")
-21.4
>>> assay_result("O=C(Nc1ccc(F)cc1)N1CCOCC1")
1.65
>>> assay_result("N.N.N.N.O=C([O-])O.O=C([O-])[O-].[Co+3]")
2.15
>>> assay_result("CCCC(C)C(=O)OC(CC)CC (stereo not given)")
31.4
>>> assay_result("COc1ccc(C(C)(OC)c2cc(C(C)(C)C)c(O)c(C(C)(C)C)c2)cc1 (stereo not given)")
-19.2
>>> assay_result("O=C(Cc1ccccc1)CC(CC(=O)Cc1ccccc1)c1ccccc1")
31

* * *

assay: NCI Yeast Anticancer Drug Screen. Data for the cln2 rad14 strain (AID 165);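 further: 0% = growth equal to vehicle treated cultures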; conditions: S. cerevisiae cln2 rad14 strain, hits give high values; at 50.0 µM unless noted
About 79,000 compounds went through this panel and 15% of them were active in at least one assay; those are over-represented in the sample as a whole.
# growth inhibition per record follows
assay.metric: growth inhibition (%)

>>> assay_result("O=S(=O)(O)c1ccc(N=Nc2ccc(O)cc2)cc1")
-53.9
>>> assay_result("Cc1ccc(S(=O)(=O)OCCOCCOS(=O)(=O)c2ccc(C)cc2)cc1")
4
>>> assay_result("O=[N+]([O-])c1ccc(CS(=O)Cc2ccccc2)cc1 (centres undefined)")
0.05
>>> assay_result("CCCc1ccc(C)c(Br)c1")
-9.95
>>> assay_result("CC1(C)C2CCC3(C2)CS(=O)(=O)N2OC231 (centres undefined)")
-20.1
>>> assay_result("COC(=O)C1CCCC1")
9.4
>>> assay_result("CSC(=NC(=O)c1ccccc1)SCCSC(=NC(=O)c1ccccc1)SC")
33.6
>>> assay_result("Clc1cccc(/C=N\\N=C\\c2cccc(Cl)c2)c1")
-8.75
>>> assay_result("CCOC(=O)C(Cc1cc(N)c(Oc2ccc(OC)cc2)c(N)c1)NC(C)=O (centres undefined)")
14.9
>>> assay_result("CCCCCCCCCCCCCCCCNC(=O)C(=O)/C=C(\\O)c1ccc(C)cc1")
-44.5
>>> assay_result("CC(=O)OC1OC(COC(c2ccccc2)(c2ccccc2)c2ccccc2)C(OC(C)=O)C(OC(C)=O)C1OC(C)=O (centres undefined)")
6.4
>>> assay_result("O=C(/C(=C1\\SS/C(=C(/C(=O)c2ccccc2)c2ccccc2)S1)c1ccccc1)c1ccccc1")
7.3
>>> assay_result("CCCCCCCCCC(=O)N=C(C(N)=O)C(N)=O")
3.75
>>> assay_result("CCOC(=O)c1c(C)[nH]c(C=O)c1C")
16.7

* * *

assay: NCI Yeast Anticancer Drug Screen. Data for the sgs1 mgt1 strain (AID 161);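 further: 0% = growth of cultures given vehicle only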; settings: S. cerevisiae sgs1 mgt1 strain, hits give high values; at 50.0 µM unless noted
Compounds without any hit were thinned out: in the full panel of roughly 79,000, 15% have a hit.
assay.metric: growth inhibition (%)

>>> assay_result("CC(=O)NNS(=O)(=O)c1ccccc1")
4.15
>>> assay_result("Cc1cccc(NC(=O)N(C(C)C)C(C)C)c1")
-3.55
>>> assay_result("C=C(Br)CNC(=O)C(O)(c1ccccc1)c1ccccc1")
0
>>> assay_result("COc1ccc(NC(=O)CC(=O)N2N=C(N3c4ccccc4Sc4ccccc43)CC2c2ccccc2)cc1 (stereo unspecified)")
0.8
>>> assay_result("N#CC1(c2ccccc2)CCC1")
7.5
>>> assay_result("OCCCCCSc1ccccc1")
7.95
